Every entry's value here was drawn from patent US20100185419A1.

system.under.test: HCV NS3/4A 1b protease D168A (Hepatitis C virus genotype 1b, UniProt P26662, D1194A)
Sequence (P26662 1027-1208 D1194A): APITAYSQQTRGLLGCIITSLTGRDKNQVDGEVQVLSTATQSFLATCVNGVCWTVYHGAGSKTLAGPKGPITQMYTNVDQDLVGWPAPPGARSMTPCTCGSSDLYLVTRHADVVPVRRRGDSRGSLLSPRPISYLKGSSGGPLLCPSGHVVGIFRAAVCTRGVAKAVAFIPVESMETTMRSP
Sequence (P26662 1658-1711 partner limits assumed): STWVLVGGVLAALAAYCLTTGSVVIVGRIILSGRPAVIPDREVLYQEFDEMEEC
assay.details: HCV Protease FRET Assay for mutated NS3/4A 1b enzyme (IC50)
Assay type: biochemical
run.conditions: 30 min pre-incubation
experimental.endpoint: IC50 (nM)
The figure you give is taken to be in nM; do not add the unit.

Task: Param item = C=CC(=O)NCC(=O)N1C[C@H](Oc2cc(-c3ccccc3)nc3cc(OC)ccc23)C[C@H]1C(=O)N[C@]1(C(=O)NS(=O)(=O)c2ccccc2)C[C@H]1C=C ; retrieve measured IC50.
Output: 17

* * *

system.under.test: Btk (Homo sapiens, UniProt Q06187)
Sequence (Q06187 whole entry): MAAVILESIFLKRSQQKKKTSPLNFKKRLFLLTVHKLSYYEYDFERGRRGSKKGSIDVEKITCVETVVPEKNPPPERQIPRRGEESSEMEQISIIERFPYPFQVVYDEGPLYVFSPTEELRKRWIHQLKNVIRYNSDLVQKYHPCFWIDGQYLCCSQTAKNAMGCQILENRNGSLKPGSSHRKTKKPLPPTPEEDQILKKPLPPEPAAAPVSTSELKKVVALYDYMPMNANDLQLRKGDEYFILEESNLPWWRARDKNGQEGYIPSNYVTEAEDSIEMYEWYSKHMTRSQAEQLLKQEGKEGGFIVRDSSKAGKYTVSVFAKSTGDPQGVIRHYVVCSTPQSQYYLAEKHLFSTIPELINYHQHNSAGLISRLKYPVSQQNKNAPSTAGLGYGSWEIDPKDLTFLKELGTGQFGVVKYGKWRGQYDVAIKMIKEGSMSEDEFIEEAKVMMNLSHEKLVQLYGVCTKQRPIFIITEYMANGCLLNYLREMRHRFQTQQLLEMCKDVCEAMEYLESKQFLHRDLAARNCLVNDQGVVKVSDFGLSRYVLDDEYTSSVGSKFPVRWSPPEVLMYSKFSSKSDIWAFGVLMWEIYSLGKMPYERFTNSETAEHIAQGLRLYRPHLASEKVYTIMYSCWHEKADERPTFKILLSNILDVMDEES
experimental.endpoint: pIC50
Conceptually, pIC50 converts a concentration in mol/L into minus its log10.

Task: Param item = C=CC(=O)Nc1cccc(Nc2cc(Nc3ccc(Oc4ccccc4)cc3)ncn2)c1 ; retrieve measured pIC50.
Output: 8.74
